Taken from paper PMC10247784.

Target: human TAS2R14 (Homo sapiens)
Construct: expressed in transfected cells; host or cells: HEK293T-Gα16gust44
Sequence (Q9NYV8 1-317): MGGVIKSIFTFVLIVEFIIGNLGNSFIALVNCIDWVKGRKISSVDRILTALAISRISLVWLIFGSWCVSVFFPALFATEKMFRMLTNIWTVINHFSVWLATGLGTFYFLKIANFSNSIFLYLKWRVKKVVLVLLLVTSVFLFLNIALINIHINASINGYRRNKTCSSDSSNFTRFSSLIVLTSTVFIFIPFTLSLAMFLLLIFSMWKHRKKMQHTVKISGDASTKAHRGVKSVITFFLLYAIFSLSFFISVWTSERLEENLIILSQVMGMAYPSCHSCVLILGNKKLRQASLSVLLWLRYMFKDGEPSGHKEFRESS
Experiment: Calcium imaging assay (FLIPR), HEK293T-Gα16gust44 cells transfected with human TAS2R14
Format: cell-based
Settings: TAS2R14 trace; Time (s) 335.578 (Taurocholic Acid 335.563, Chenodeoxycholic Acid 335.546)
Hi, to clarify the labels: t covers RLU from 90 RLU upward, f covers anything below 90 RLU.

[
  {
    "smiles data": "C[C@H](CCC(=O)NCC(=O)O)[C@H]1CC[C@H]2[C@@H]3[C@H](O)C[C@@H]4C[C@H](O)CC[C@]4(C)[C@H]3C[C@H](O)[C@]12C",
    "assayed target": "human TAS2R14 (Homo sapiens)",
    "label class": "t"
  },
  {
    "smiles data": "C[C@H](CCC(=O)NCCS(=O)(=O)O)[C@H]1CC[C@H]2[C@@H]3CC[C@@H]4C[C@H](O)CC[C@]4(C)[C@H]3CC[C@]12C",
    "assayed target": "human TAS2R14 (Homo sapiens)",
    "label class": "f"
  },
  {
    "smiles data": "C[C@H](CCC(=O)O)[C@H]1CC[C@H]2[C@@H]3[C@H](O)C[C@@H]4C[C@H](O)CC[C@]4(C)[C@H]3CC[C@]12C",
    "assayed target": "human TAS2R14 (Homo sapiens)",
    "label class": "t"
  }
]

###

biological target: human TAS2R4 (Homo sapiens); construct: expressed in transfected cells; host or cells: HEK293T-Gα16gust44; test: Calcium imaging assay (FLIPR), HEK293T-Gα16gust44 cells transfected with human TAS2R4; type: cell-based; settings: Time (s) 54.781 (TCA, TLCA: 54.782); also: test concentration or dose not given here
Sequence (Q9NYW5 whole entry): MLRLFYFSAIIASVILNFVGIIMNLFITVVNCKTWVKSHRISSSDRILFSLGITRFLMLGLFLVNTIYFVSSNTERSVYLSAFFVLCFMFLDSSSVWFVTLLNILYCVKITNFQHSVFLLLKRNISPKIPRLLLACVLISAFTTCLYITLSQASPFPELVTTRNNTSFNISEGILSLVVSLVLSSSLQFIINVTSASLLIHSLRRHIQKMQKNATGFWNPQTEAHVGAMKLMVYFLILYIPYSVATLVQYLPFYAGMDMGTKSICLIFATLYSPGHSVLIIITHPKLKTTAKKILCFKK
Hi, to clarify the labels: MET covers RLU, fluorescence trace from 600 RLU upward, NOT MET covers anything below 600 RLU.

[
  {
    "molecule": "C[C@H](CCC(=O)O)[C@H]1CC[C@H]2[C@@H]3[C@@H](O)C[C@@H]4C[C@H](O)CC[C@]4(C)[C@H]3CC[C@]12C [Ursodeoxycholic Acid, ursodeoxycholic acid]",
    "label class": "NOT MET"
  },
  {
    "molecule": "C[C@H](CCC(=O)O)[C@H]1CC[C@H]2[C@@H]3[C@H](O)C[C@@H]4C[C@H](O)CC[C@]4(C)[C@H]3C[C@H](O)[C@]12C [Cholic Acid, cholic acid]",
    "label class": "MET"
  },
  {
    "molecule": "C[C@H](CCC(=O)O)[C@H]1CC[C@H]2[C@@H]3CC[C@@H]4C[C@H](O)CC[C@]4(C)[C@H]3C[C@H](O)[C@]12C [Deoxycholic Acid, deoxycholic acid]",
    "label class": "NOT MET"
  },
  {
    "molecule": "C[C@H](CCC(=O)NCCS(=O)(=O)O)[C@H]1CC[C@H]2[C@@H]3CC[C@@H]4C[C@H](O)CC[C@]4(C)[C@H]3CC[C@]12C [Taurolithocholic Acid, taurolithocholic acid]",
    "label class": "NOT MET"
  },
  {
    "molecule": "C[C@H](CCC(=O)NCC(=O)O)[C@H]1CC[C@H]2[C@@H]3[C@H](O)C[C@@H]4C[C@H](O)CC[C@]4(C)[C@H]3C[C@H](O)[C@]12C [Glycocholic Acid, glycocholic acid]",
    "label class": "MET"
  }
]

###

biological target: human TAS2R1 (Homo sapiens, UniProt Q9NYW7); construct: expressed in transfected cells; host or cells: HEK293T-Gα16gust44; assay: Calcium imaging assay (FLIPR), HEK293T-Gα16gust44 cells transfected with human TAS2R1; format: cell-based; details: Time 110.796 s
endpoint: RLU (RLU)

[
  {
    "smiles data": "C[C@H](CCC(=O)O)[C@H]1CC[C@H]2[C@@H]3[C@H](O)C[C@@H]4C[C@H](O)CC[C@]4(C)[C@H]3C[C@H](O)[C@]12C",
    "unit name": "RLU",
    "endpoint result": 503.66
  },
  {
    "smiles data": "C[C@H](CCC(=O)O)[C@H]1CC[C@H]2[C@@H]3CC[C@@H]4C[C@H](O)CC[C@]4(C)[C@H]3CC[C@]12C",
    "unit name": "RLU",
    "endpoint result": 857.451
  },
  {
    "smiles data": "C[C@H](CCC(=O)O)[C@H]1CC[C@H]2[C@@H]3[C@@H](O)C[C@@H]4C[C@H](O)CC[C@]4(C)[C@H]3CC[C@]12C",
    "unit name": "RLU",
    "endpoint result": 379.699
  },
  {
    "smiles data": "C[C@H](CCC(=O)O)[C@H]1CC[C@H]2[C@@H]3[C@H](O)C[C@@H]4C[C@H](O)CC[C@]4(C)[C@H]3CC[C@]12C",
    "unit name": "RLU",
    "endpoint result": 647.896
  }
]

###

Molecular target: human TAS2R1 (Homo sapiens)
Construct: expressed in transfected cells; host or cells: HEK293T-Gα16gust44
Sequence (Q9NYW7 1-299): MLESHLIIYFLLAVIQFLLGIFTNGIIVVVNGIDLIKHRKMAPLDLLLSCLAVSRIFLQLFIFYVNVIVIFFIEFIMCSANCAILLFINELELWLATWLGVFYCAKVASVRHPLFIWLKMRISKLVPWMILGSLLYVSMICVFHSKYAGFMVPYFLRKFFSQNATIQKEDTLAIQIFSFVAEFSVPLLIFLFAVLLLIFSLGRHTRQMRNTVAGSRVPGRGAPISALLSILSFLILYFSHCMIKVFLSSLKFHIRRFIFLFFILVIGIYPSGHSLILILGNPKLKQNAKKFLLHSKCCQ
Assay: Calcium imaging assay (FLIPR), HEK293T-Gα16gust44 cells transfected with human TAS2R1
Type: cell-based
Conditions: Time 293.562 s
Entries and their measured RLU follow.
endpoint: RLU (RLU)

[
  {
    "smiles data": "C[C@H](CCC(=O)O)[C@H]1CC[C@H]2[C@@H]3[C@@H](O)C[C@@H]4C[C@H](O)CC[C@]4(C)[C@H]3CC[C@]12C",
    "unit name": "RLU",
    "endpoint result": -21.0295
  },
  {
    "smiles data": "C[C@H](CCC(=O)O)[C@H]1CC[C@H]2[C@@H]3[C@H](O)C[C@@H]4C[C@H](O)CC[C@]4(C)[C@H]3CC[C@]12C",
    "unit name": "RLU",
    "endpoint result": 126.733
  },
  {
    "smiles data": "C[C@H](CCC(=O)O)[C@H]1CC[C@H]2[C@@H]3CC[C@@H]4C[C@H](O)CC[C@]4(C)[C@H]3CC[C@]12C",
    "unit name": "RLU",
    "endpoint result": 250.547
  },
  {
    "smiles data": "C[C@H](CCC(=O)O)[C@H]1CC[C@H]2[C@@H]3[C@H](O)C[C@@H]4C[C@H](O)CC[C@]4(C)[C@H]3C[C@H](O)[C@]12C",
    "unit name": "RLU",
    "endpoint result": -10.9022
  }
]

###

target: human TAS2R14 (Homo sapiens, UniProt Q9NYV8); construct: expressed in transfected cells; host or cells: HEK293T-Gα16gust44; assay: Calcium imaging assay (FLIPR), HEK293T-Gα16gust44 cells transfected with human TAS2R14; type: cell-based; conditions: TAS2R14 trace; Time (s) 72.797 (Chenodeoxycholic Acid 72.781)

[
  {
    "smiles data": "C[C@H](CCC(=O)O)[C@H]1CC[C@H]2[C@@H]3[C@H](O)C[C@@H]4C[C@H](O)CC[C@]4(C)[C@H]3CC[C@]12C",
    "assayed target": "human TAS2R14 (Homo sapiens, UniProt Q9NYV8)",
    "unit name": "RLU",
    "RLU": 626.948
  },
  {
    "smiles data": "C[C@H](CCC(=O)NCC(=O)O)[C@H]1CC[C@H]2[C@@H]3[C@H](O)C[C@@H]4C[C@H](O)CC[C@]4(C)[C@H]3C[C@H](O)[C@]12C",
    "assayed target": "human TAS2R14 (Homo sapiens, UniProt Q9NYV8)",
    "unit name": "RLU",
    "RLU": 622.789
  },
  {
    "smiles data": "C[C@H](CCC(=O)NCCS(=O)(=O)O)[C@H]1CC[C@H]2[C@@H]3CC[C@@H]4C[C@H](O)CC[C@]4(C)[C@H]3CC[C@]12C",
    "assayed target": "human TAS2R14 (Homo sapiens, UniProt Q9NYV8)",
    "unit name": "RLU",
    "RLU": 231.58
  },
  {
    "smiles data": "C[C@H](CCC(=O)O)[C@H]1CC[C@H]2[C@@H]3[C@H](O)C[C@@H]4C[C@H](O)CC[C@]4(C)[C@H]3C[C@H](O)[C@]12C",
    "assayed target": "human TAS2R14 (Homo sapiens, UniProt Q9NYV8)",
    "unit name": "RLU",
    "RLU": 873.655
  },
  {
    "smiles data": "C[C@H](CCC(=O)NCCS(=O)(=O)O)[C@H]1CC[C@H]2[C@@H]3[C@H](O)C[C@@H]4C[C@H](O)CC[C@]4(C)[C@H]3C[C@H](O)[C@]12C",
    "assayed target": "human TAS2R14 (Homo sapiens, UniProt Q9NYV8)",
    "unit name": "RLU",
    "RLU": 663.572
  }
]
